# System: Q30E in genotype 1a NS5A replicon
# test_summary: Resistance mutant replicon assay, genotype 1a NS5A Q30E
# Type: cell-based, HCV
# details: Hepatitis C virus, read-out: 1a Q30E (nM)
measured_property: EC50

Looking up COC[C@H]1C[C@@H](c2ncc(-c3ccc4c(c3)COc3cc5c(ccc6nc([C@@H]7CC[C@H](C)N7C(=O)[C@@H](NC(=O)OC)C(C)C)[nH]c65)cc3-4)[nH]2)N(C(=O)[C@@H](NC(=O)OC)C2C[C@@H](C)O[C@H](C)C2)C1 (stereo partly shown) , I see its EC50 listed as 0.082 nM

get_value(item= CC[C@H](C)[C@H](NC(=O)OC)C(=O)N1[C@@H](C)CC[C@H]1c1ncc(-c2ccc3c(c2)COc2cc4c(ccc5nc([C@@H]6CC[C@H](C)N6C(=O)[C@@H](NC(=O)OC)C6CCOCC6)[nH]c54)cc2-3)[nH]1 [Comp 4, reference compound] , readout=EC50) returns 0.432 nM

Reported EC50 ( COC(=O)N[C@H](C(=O)N1[C@@H](C)CC[C@H]1c1ncc(-c2ccc3c(c2)COc2cc4c(ccc5nc([C@@H]6CC[C@H](C)N6C(=O)[C@@H](NC(=O)OC)C6C[C@@H](C)O[C@H](C)C6)[nH]c54)cc2-3)[nH]1)C1C[C@@H](C)O[C@H](C)C1 (stereo partly shown) ) = 0.042 nM

Lab note: `COC(=O)N[C@H](C(=O)N1[C@@H](C)CC[C@H]1c1ncc(-c2ccc3c(c2)COc2cc4c(ccc5nc([C@@H]6CC[C@H](C)N6C(=O)[C@@H](NC(=O)OC)[C@@H]6CCCOC6)[nH]c54)cc2-3)[nH]1)C(C)C` gave EC50 of 2.7 nM

====

Consider the following molecules; for each one, report its EC50.
# Tested on: NS5A chimeric genotype 1b Con1 replicon with genotype 4a ED43 strain NS5A gene
# test_summary: HCV genotype 4a NS5A chimeric replicon assay
# Assay type: cell-based
# details: Hepatitis C virus, 72 h, read-out: 4a (s) (nM)
The reply should be a number in nM, with the unit left off.

Kindly note the recorded EC50 for CC[C@H]1C[C@@H](c2ncc(-c3ccc4c(c3)COc3cc5c(ccc6nc([C@@H]7CC[C@H](C)N7C(=O)[C@@H](NC(=O)OC)C(C)C)[nH]c65)cc3-4)[nH]2)N(C(=O)[C@@H](NC(=O)OC)C2C[C@@H](C)O[C@H](C)C2)C1 (stereo partly drawn) , which is 0.011

Quick note, EC50 for CC[C@H](C)[C@H](NC(=O)OC)C(=O)N1[C@@H](C)CC[C@H]1c1ncc(-c2ccc3c(c2)COc2cc4c(ccc5nc([C@@H]6CC[C@H](C)N6C(=O)[C@@H](NC(=O)OC)C6CCOCC6)[nH]c54)cc2-3)[nH]1 [Comp 4, reference compound] landed at 0.021

For reference, reported EC50 for COC(=O)N[C@H](C(=O)N1[C@@H](C)CC[C@H]1c1ncc(-c2ccc3c(c2)COc2cc4c(ccc5nc([C@@H]6C[C@H](C)CN6C(=O)[C@@H](NC(=O)OC)C6CCOCC6)[nH]c54)cc2-3)[nH]1)C(C)C [Comp 13, reference compound] stands at 4.4

Looking up COC(=O)N[C@H](C(=O)N1[C@@H](C)CC[C@H]1c1ncc(-c2ccc3c(c2)COc2cc4c(ccc5nc([C@@H]6C[C@@H]7CCC[C@@H]7N6C(=O)[C@@H](NC(=O)OC)C6C[C@@H](C)O[C@H](C)C6)[nH]c54)cc2-3)[nH]1)C(C)C (stereo partly drawn) , I found its EC50 recorded as 0.01

// recorded EC50 for COC(=O)N[C@H](C(=O)N1[C@@H](C)CC[C@H]1c1ncc(-c2ccc3c(c2)COc2cc4c(cc2-3)CCc2nc([C@@H]3CC[C@H](C)N3C(=O)[C@@H](NC(=O)OC)C3C[C@@H](C)O[C@H](C)C3)[nH]c2-4)[nH]1)C1C[C@@H](C)O[C@H](C)C1 (stereo partly drawn) : 0.025

Record summary for CC[C@H](C)[C@H](NC(=O)OC)C(=O)N1[C@@H](C)CC[C@H]1c1ncc(-c2ccc3c(c2)COc2cc4c(cc2-3)CCc2nc([C@@H]3CC[C@H](C)N3C(=O)[C@@H](NC(=O)OC)C3C[C@@H](C)O[C@H](C)C3)[nH]c2-4)[nH]1 (stereo partly drawn) : reported EC50 = 0.011
